- tested-system: SCRIB_3, Q14160
- Sequence (Q14160 999-1103): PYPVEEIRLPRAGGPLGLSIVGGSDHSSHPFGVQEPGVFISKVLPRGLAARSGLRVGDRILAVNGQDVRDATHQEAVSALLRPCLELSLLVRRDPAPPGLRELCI
- protocol-text: holdup assay
- Set-up: key: below the threshold = too weak to quantify, mostly under pKd 3.1 to 4
- protocol-conditions: plain residues with an end cap or a label only (N-terminal biotin on a linker: ado-ado)
measure: pKd
The answer should be written as a number, with no unit following it.

Guide cases for pKd, answers given:
ATKDKKITTV [EXOC4, Q96A65] : 3.84
RGKNRRQSIF [CDK18, Q07002] : 3.65
IKLETKKTKL [SLC15A2, Q16348] : 3.77
RSPVATATSC [DUSP5, Q16690] : 3.56
SRPHTNETSL [MCC, P23508] : 5.13
YAEKRMLTEV [KCNA6, P17658] : 3.52

(Q) pKd lookup needed for KIEDVEITLV [FCHSD2, O94868] , thanks.
(A) 3.48

(Q) For LLQEEWETVM [PTH1R, Q03431] then?
(A) 4.64

(Q) For FLVTEFNVML [DFNB31, Q9P202] then?
(A) 4.12

(Q) For KEKASTETEC [TRPM1, Q7Z4N2] then?
(A) 4.23
